Record form. Attribute: composite z-score. Fill in for each entry.
- test.name: small molecules captured by biotinylated probe aFGF2 – biochemical, small-molecule microarray, fluorescence 635/667, stem cell growth factor project, primary screen (AID 1067);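 note: measures binding of biotinylated aFGF2 protein to printed compounds on slides; z-score merges feature fluorescence and signal-to-noise across triplicate slides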
- run.conditions: higher = more signal
Give bare numbers.

I have 4 molecules here; please give me composite z-score for each one.
1. COc1ccc([Si](C)(C)[C@H]2[C@H](CC(=O)N3Cc4ccccc4C[C@H]3CO)O[C@@]3(C(=O)N(Cc4ccc(N5CCOC5=O)cc4)c4ccccc43)[C@@H]2C)cc1
2. O=C(C1N=C(c2ccc(OCCCO)cc2)N(c2ccccc2)O1)N1CCCCC1 (configuration not stated)
3. NCCCCCNC(=O)[C@H]1C[C@H]2C(=O)N3CCC[C@H]3C(=O)N2[C@H]1c1cccc(OCCO)c1
4. C=CCNC(=O)[C@@H]1[C@H]2C(=O)O[C@H](c3ccccc3)[C@H](c3ccccc3)N2[C@H](c2ccc(OCCO)cc2)[C@@]12C(=O)N(C(=O)OCCOC)c1ccc(C#Cc3ccc(OC)cc3)cc12

OUTPUT:
-0.0583
0.182
-0.0448
-0.126

I have 3 molecules here; please give me composite z-score for each one.
1. O=C(O)[C@@H]1C[C@@H]2C(=O)N3CCC[C@H]3C(=O)N2[C@@H]1c1ccc(O)cc1
2. COC(=O)[C@@]1(Cc2ccccc2)[C@H]2c3cc(C(=O)N4CCCC4)n(CCc4ccccn4)c3C[C@H]2CN1C(=O)c1ccccc1
3. CCOC(=O)C[C@H]1[C@H](OC(=O)c2cc3ccccc3oc2=O)[C@@H](NC(=O)CC(C)C)c2cc(OCCCO)ccc2N1C(=O)c1ccc2ccccc2n1

OUTPUT:
-0.0058
-0.177
-0.132
